Data origin: the supplement of paper PMC9170038

Tested on: K4 kissing-loop RNA reporter;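 note: bound reporter read as fluorescence of individual clusters on recovered sequencing chips by microscopy, with normalized cluster intensities fitted with a binding model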
assay.overview: apparent KD of K4 kissing-loop reporter; higher = weaker reporter binding
setup.conditions: Eterna round: R107; input ligand: arginine 13.2 mM
Reported values of apparent KD of K4 kissing-loop reporter for individual entries
Reply numerically in nM, unit not repeated.

## Task Request the reported apparent KD of K4 kissing-loop reporter associated with GAUGAACUAUUCGAUACCAGACUACAUGAGUGAUGUUCAUGUGUGUCAAUGUCUAUGUCAGUCCCUUGGCAGCGAAUAGUUUAUC [KL-XTheo-B27]
## Result 108

## Task Check UUUGGUAUCUCGGCCGCCACUCGUGGGAAAUGGGCCUCAGGGAUAUAGUGAUGUUAUGUAAAGAAGAGGACCGGGAGAAGGAAGG [ExTryptoB.Dk] too.
## Result 232

## Task Check AGACUUCACCGAAGGAGCGACGUGGCCUAGUGAUGUUAGGUACGAGAGAAAUCUCGUAUACGUCAGGUAGGUCGCGGUGAAGUCA [Omei KL Arginine B SS C v8] too.
## Result 643

## Task Check CCGCUACCCUCAGGAUAUUAAAUAUUAGUGAUGUUAAUAAACCGAUGGCGAAAGCCAUCGGUAUGUUAAGAAGGGAGGGUAGCGG too.
## Result 847

## Task Check AAGUCAUAGGCAGGAUAUGCAUAGUAAUAAGGCAAUAUCUACGUAUAGAGUGAUGUUUUGUACCAGGCAGAAGGGCUACAUCAGU [FMN B Excl V9 (+4A/C)] too.
## Result 407

Further cases:
## Task Request the reported apparent KD of K4 kissing-loop reporter associated with AGAGUUAUGCGAGGAUAUGCAGUUAGUACUCAAAGAGUACUAACGCAGAGUGAUGUUCUGUGAAAAGCAGAAGGUGCAUAACUCA [Omei KL FMN B SS B v6]
## Result 650

## Task Check UAGUCCUAGUGAUCCUUAUCAAGUGGUGGGCGAGGACCGGUACGGCCGCCACUCGACUAUGCAGUGAUGUUGCAAUCCGGACAAU [Exclusion - Tryptophan A (Freestyle 13)] too.
## Result 211

## Task Check UGUAUGGACUGAAGGAGCGGUAUAUAAACUGAGUGAUGUUCGGCAGAUAAAGGCGCAAGCCACCAGGUAGGUCGCAGUCCAUACU [KL-SSArg B2] too.
## Result 207

## Task Check CGUUCUUCUGUCGAUACCAGCUUCAGUUGGCGGCCAGUGAUGUUGGUAUCGCCGAUGCCAAGCCCUUGGCAGCGACAUGAGACCC [Onrire] too.
## Result 180

## Task Check AAAUUUAAUAUAUUUAAUUAAUUAUGUGAUACCAGACAUUAAUAAGUCCCUUGGCAGCACAAUGCAGUGAUGUUGCUUAUAAUAA [JR_SSTheophyA_Sub010] too.
## Result 117

## Task Check AACCACUCGUUACAUCACUAUCGAGUGGAACGAGGACCGGUACGGCCGCCACUCGGUAUCUUGCAGUGAUGUUGCAAGAAAGAAU [KL-SSTryp-A #dotplot2 strengthened] too.
## Result 199

## Task Check UGACAUUGCUCAGAUACCAGACAUGAGCAUCAGCCAUGUGCCAAACGUACAAUAAUAAAUGUCCCUUGGCAGCUGAGCAAUGUCU [TheoBX 14] too.
## Result 33.1

## Task Check CGAGCGGAGUGAUGUUCCGUGCCAGCAGAUACCAGAUUGAAAGAGAUCCCUUGGCAGCUGCGUCACACCCUUACGUGAUAGGACC [theeternabot_sameState_KL_Theo_A_32] too.
## Result 178

## Task Check AACUUAAUUUAUAAGCAGUGAUGUUGCUCACGAGGACCGGUACGGCCGCCACUCGAUCGGACUUAGGUCUUCAAUUAUUUCUUAA [JR_ExcTryptoA_Sub018] too.
## Result 157

## Task Check GGAUAGGAUAGAGGAUAUGGUUUAUGCAGAAAUAACUUAUUGUGUAAAUCCAUAGGGAGUGAUGUUCCAGAAGGCUGUCCUAUCG [MatMod 15 - Jieux - Exclusion - FMN B] too.
## Result 187

## Task Check AAGUGUGUGGCGGCCGCCACUAGAAUCCAGUGAUGUUGGAGUUAUCAGAUAAAUGAUAAUCAACAUAGGACCGGGCCAUAUAGAA [Same State - Tryptophan B (Freestyle 5)] too.
## Result 689

## Task Check AAAAUAAUCCAGUGAUGUUGGUGUCCAGAUACCAGCGACGAAAGUCGCCCUUGGCAGCUGUGGACGUACAAAAUAAGUACGUCCU too.
## Result 331

## Task Check GGUGCCGGGCAAGGAUAUUAGUCGAGUGAUGUUCGGCGGUCCAAGUCGUUGCGGCGUUAAACCCUUUGAGAAGGUGCCCGGUGCC [#2 Exclusion - FMN B Attempt #1 (HarryS)] too.
## Result 144

## Task Check UAGAGUCACAAGACAGUGAUGUUGUCUACUGAGGAUAUCAUGAAUAUGAGAAGGCAGUGUUGGAGGUCUCUAACAACAGACUCUG [FMN A SS t3] too.
## Result 227

## Task Check GGUAGCAUGGCGGCCGCCACUCUUCAUUAGUGAUGUUAAUGCCGAGUGCGCUAACUCCUACGGGAGAGGACCGGGCCAUGCUACC too.
## Result 4.43
